Entry source: patent US11091488B2

pIC50: recorded values
Molecular target: USP30 (Homo sapiens (Human), UniProt Q70CQ3)
Sequence (Q70CQ3 57-517): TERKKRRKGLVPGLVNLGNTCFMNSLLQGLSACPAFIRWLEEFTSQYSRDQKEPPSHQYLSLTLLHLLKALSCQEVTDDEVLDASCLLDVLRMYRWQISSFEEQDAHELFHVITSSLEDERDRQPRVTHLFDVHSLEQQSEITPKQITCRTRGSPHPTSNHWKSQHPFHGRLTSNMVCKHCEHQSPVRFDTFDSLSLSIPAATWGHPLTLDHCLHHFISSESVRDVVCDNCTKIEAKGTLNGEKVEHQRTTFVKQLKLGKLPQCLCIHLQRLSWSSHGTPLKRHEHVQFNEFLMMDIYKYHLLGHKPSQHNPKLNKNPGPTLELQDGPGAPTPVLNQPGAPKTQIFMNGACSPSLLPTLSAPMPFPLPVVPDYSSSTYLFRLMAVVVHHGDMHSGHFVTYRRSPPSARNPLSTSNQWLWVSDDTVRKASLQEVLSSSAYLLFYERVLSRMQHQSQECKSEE
pIC50: −log10 of the molar value.

Worked cases, answers included:
INSERT INTO assay_data (compound, measured_result) VALUES
  ('N#CN1CC[C@@H](N2CCN(c3cccc(-c4ccncc4)c3)S2(=O)=O)C1 [Example 19]', '> 7.00'),
  ('N#CN1CC[C@@H](N2CCN(C3CCN(c4ccccn4)C3)S2(=O)=O)C1 (some centres unmarked) [Example 9]', '6.00 to 7.00'),
  ('N#CN1CC[C@@H](N2CCN(c3ccnc(N4CCOCC4)c3)S2(=O)=O)C1 [Example 50]', '> 7.00'),
  ('COC1CN(c2cc(N3CCN([C@@H]4CCN(C#N)C4)S3(=O)=O)ccn2)C1 [Example 55]', '6.00 to 7.00'),
  ('N#CN1CC[C@H](N2CCN(c3cccc(-c4ccccc4)c3)S2(=O)=O)C1 [Example 35]', '> 7.00');

Exercise: Given the compound CN1CCN(c2cc(N3CCN([C@@H]4CCN(C#N)C4)S3(=O)=O)ccn2)CC1 [Example 52] , what is its reported pIC50?
Solution: 6.00 to 7.00

Exercise: Given the compound N#CN1CC[C@H](N2CCN(c3cccc(-c4ccncc4)c3)S2(=O)=O)C1 [Example 33] , what is its reported pIC50?
Solution: > 7.00

Exercise: Given the compound COc1ccc(N2CCN([C@@H]3CCN(C#N)C3)S2(=O)=O)cc1N1CCOCC1 [Example 8] , what is its reported pIC50?
Solution: 6.00 to 7.00

Exercise: Given the compound N#CN1CC[C@@H](N2CCCN(c3cccc(-c4ccccc4)c3)S2(=O)=O)C1 [Example 14] , what is its reported pIC50?
Solution: 6.00 to 7.00

Exercise: Given the compound N#CN1CC[C@@H](N2CCN(c3ccc(-c4ccncc4)cc3)S2(=O)=O)C1 [Example 18] , what is its reported pIC50?
Solution: > 7.00

Exercise: Given the compound N#CN1CC[C@@H](NS(=O)(=O)N2CCc3ccccc3C2)C1 [Example 62] , what is its reported pIC50?
Solution: 5.00 to 6.00

Exercise: Given the compound N#CN1CC[C@@H](N2Cc3cccc(N4CCOCC4)c3NS2(=O)=O)C1 [Example 77] , what is its reported pIC50?
Solution: 5.00 to 6.00

Exercise: Given the compound COc1cccc(-c2cccc(N3CCN([C@@H]4CCN(C#N)C4)S3(=O)=O)c2)c1 [Example 16] , what is its reported pIC50?
Solution: > 7.00

Exercise: Given the compound COc1ccccc1-c1ccc(N2CCN([C@@H]3CCN(C#N)C3)S2(=O)=O)cc1 [Example 17] , what is its reported pIC50?
Solution: > 7.00

Exercise: Given the compound N#CN1CC[C@@H](N2CCN(c3ccc4c(c3)N(CCO)C(=O)CO4)S2(=O)=O)C1 [Example 6] , what is its reported pIC50?
Solution: 6.00 to 7.00

Exercise: Given the compound N#CN1CC[C@@H](N2Cc3ccccc3N(Cc3ccccc3)S2(=O)=O)C1 [Example 69] , what is its reported pIC50?
Solution: 6.00 to 7.00

Exercise: Given the compound N#CN1CC[C@@H](N2CCCN(c3cc(-c4ccccc4)n[nH]3)S2(=O)=O)C1 [Example 29] , what is its reported pIC50?
Solution: 6.00 to 7.00

====

pIC50: −log10 of the molar value.
What follows is a collection of pIC50 values obtained with USP30 (Homo sapiens (Human)).

Worked cases, answers included:
INSERT INTO results (compound, assayed_target, measured_result) VALUES
  ('N#CN1CCC(N2CCCN(c3ccccc3)S2(=O)=O)C1 (stereo not shown)', 'USP30 (Homo sapiens (Human))', '6.00 to 7.00'),
  ('N#CN1CC[C@@H](N2CCN(c3cccc(-c4ccccc4)c3)S2(=O)=O)C1', 'USP30 (Homo sapiens (Human))', '> 7.00'),
  ('N#CN1CC[C@@H](N2CCCN(c3cccc(N4CCOCC4)c3)S2(=O)=O)C1', 'USP30 (Homo sapiens (Human))', '5.00 to 6.00'),
  ('COc1ccc(-c2ccccc2)cc1N1CCN([C@@H]2CCN(C#N)C2)S1(=O)=O', 'USP30 (Homo sapiens (Human))', '> 7.00'),
  ('CN1c2cc(-c3ccccc3)ccc2CN([C@@H]2CCN(C#N)C2)S1(=O)=O', 'USP30 (Homo sapiens (Human))', '6.00 to 7.00'),
  ('Cn1cc(-c2cccc(N3CCN([C@@H]4CCN(C#N)C4)S3(=O)=O)c2)cn1', 'USP30 (Homo sapiens (Human))', '> 7.00'),
  ('COCCN(CCOC)c1cc(N2CCN([C@@H]3CCN(C#N)C3)S2(=O)=O)ccn1', 'USP30 (Homo sapiens (Human))', '6.00 to 7.00'),
  ('CO[C@@H]1CCN(c2cccc(N3CCN([C@@H]4CCN(C#N)C4)S3(=O)=O)c2)C1', 'USP30 (Homo sapiens (Human))', '6.00 to 7.00');

Exercise: Given the compound N#CN1CC[C@@H](N2CCN(c3ccc4nc(C(F)(F)F)[nH]c4c3)S2(=O)=O)C1 , what is its reported pIC50?
Solution: 6.00 to 7.00

Exercise: Given the compound N#CN1CC[C@H](N2CCN(c3ccc(-c4ccncc4)cc3)S2(=O)=O)C1 , what is its reported pIC50?
Solution: > 7.00

Exercise: Given the compound N#CN1CC[C@@H](N2CCN(c3cccc(N4CCOCC4)c3)S2(=O)=O)C1 , what is its reported pIC50?
Solution: > 7.00

Exercise: Given the compound C[C@H]1CN(C#N)C[C@@H]1N1CCN(c2ccc(-c3ccccc3)cc2)S1(=O)=O , what is its reported pIC50?
Solution: > 7.00

Exercise: Given the compound N#CN1CC[C@H](N2CCN(c3ccc(-c4ccccc4)cc3)S2(=O)=O)C1 , what is its reported pIC50?
Solution: > 7.00
